Parameter: % inhibition. Scope: all listed entries.
System: YST-1
Test: % inhibition of CellTiter-Glo viability at highest tested concentration (72 h), relative to DMSO and benzethonium chloride controls; higher = more inhibition
recorded-endpoint: % inhibition

COc1cc(Br)c(Nc2nc(-c3c(C)nc4ncccn34)cs2)c(Br)c1 [PTC-209] (max concentration tested 10000 nM)
94.4%
CS(=O)(=O)c1ccc(C(=O)Nc2ccc(Cl)c(-c3ccccn3)c2)c(Cl)c1 [Vismodegib] (max concentration tested 10000 nM)
6.14%
CC[C@H](C)C(=O)O[C@H]1C[C@H](O)C=C2C=C[C@H](C)[C@H](CC[C@@H](O)C[C@@H](O)CC(=O)O)[C@H]21 [Pravastatin] (max concentration tested 10000 nM)
0.31%
C#Cc1cccc(Nc2ncnc3cc(OC)c(OCCCCCCC(=O)NO)cc23)c1 [CUDC-101] (max concentration tested 10000 nM)
99.1%
COc1cc(Nc2ncc(F)c(Nc3ccc4c(n3)NC(=O)C(C)(C)O4)n2)cc(OC)c1OC [Tamatinib] (max concentration tested 10000 nM)
-0.14%
O=C1NC(=O)[C@@H](c2cn3c4c(cccc24)CCC3)[C@@H]1c1c[nH]c2ccccc12 [Tivantinib] (max concentration tested 1000 nM)
78.2%

---

Attribute: relative IC50
Test system: ST8814
Experiment: relative IC50 (inflection point of fitted dose-response curve, CellTiter-Glo viability, 72 h; top asymptote may be below 50% inhibition); higher = less potent
recorded-endpoint: relative IC50

CN[C@@H](C)C(=O)N[C@H]1CN(C(=O)CC(C)C)CC[C@H]2CC[C@@H](C(=O)NC(c3ccccc3)c3ccccc3)N2C1=O [AT-406]
> 10 µM
CN1CCN(c2ccc3nc(-c4c(N)c5c(F)cccc5[nH]c4=O)[nH]c3c2)CC1 [Dovitinib]
> 10 µM
COCC1(CO)C(=O)C2CCN1CC2 (stereo not drawn) [Prima-1 Met]
> 10 µM

---

System: HS-PSS
Assay: % inhibition of CellTiter-Glo viability at highest tested concentration (72 h), relative to DMSO and benzethonium chloride controls; higher = more inhibition
recorded-endpoint: % inhibition (%)

CCCCNc1ncc(C(=O)NCc2ccc(-n3ccnc3)cc2)c(NC2CCC(O)CC2)n1 (stereo unspecified) [UNC2881] (max concentration tested 2500 nM)
37
Cn1ncnc1[C@H]1c2n[nH]c(=O)c3cc(F)cc(c23)N[C@@H]1c1ccc(F)cc1 [Talazoparib] (max concentration tested 1000 nM)
21.9
CCc1cnn2c(NCc3ccc[n+]([O-])c3)cc(N3CCCC[C@H]3CCO)nc12 [Dinaciclib] (max concentration tested 1000 nM)
84.2
COc1ccc(-c2ccc3ncc4c(c3c2)n(-c2ccc(N3CCNCC3)c(C(F)(F)F)c2)c(=O)n4C)cn1 [NVP-BGT226] (max concentration tested 1000 nM)
99.1
CN(CC(=O)N(Cc1ccc(C2CCCCC2)cc1)c1ccc(C(=O)O)cc1)S(=O)(=O)c1c(F)c(F)c(F)c(F)c1F [SH-4-54] (max concentration tested 25000 nM)
98.7
CNNCc1ccc(C(=O)NC(C)C)cc1 [Procarbazine] (max concentration tested 10000 nM)
4.68
COc1cc([C@@H]2c3cc4c(cc3[C@@H](O[C@@H]3O[C@@H]5CO[C@@H](c6cccs6)O[C@H]5[C@H](O)[C@H]3O)[C@H]3COC(=O)[C@H]23)OCO4)cc(OC)c1O [Teniposide] (max concentration tested 10000 nM)
68.2
C[C@@H]1CN(Cc2ccc(F)cc2)[C@@H](C)CN1C(=O)c1cc2c(C(=O)C(=O)N(C)C)cn(C)c2cc1Cl [Talmapimod] (max concentration tested 10000 nM)
13.9
CC/C(=C(\c1ccc(O)cc1)c1ccc(OCCN(C)C)cc1)c1ccccc1 [4-hydroxytamoxifen] (max concentration tested 10000 nM)
88.4
O=C1NC(=O)[C@@H](c2cn3c4c(cccc24)CCC3)[C@@H]1c1c[nH]c2ccccc12 [Tivantinib] (max concentration tested 1000 nM)
36.1
N#Cc1ccc2[nH]c(O)c(-c3ccc(CN4CCOCC4)cn3)c2c1 [AZD-1080] (max concentration tested 10000 nM)
43.5
CN(N=O)C(=O)N[C@@H]1[C@@H](O)[C@H](O)[C@@H](CO)O[C@@H]1O [Streptozocin] (max concentration tested 10000 nM)
7.67
Cc1c(Cn2c(C)nc3c(C(=O)O)cc(N4CCOCC4)cc32)cccc1C(F)(F)F (max concentration tested 10000 nM)
19.4
Nc1cccc2c1C(=O)N(C1CCC(=O)NC1=O)C2=O (stereo unspecified) [Pomalidomide] (max concentration tested 10000 nM)
-13.4
CNC(=O)c1nn(C)c2c1C(C)(C)Cc1cnc(Nc3ccc(N4CCN(C)CC4)cc3)nc1-2 [Milciclib] (max concentration tested 10000 nM)
79.3
COc1cc2ncnc(Nc3ccc(F)c(Cl)c3)c2cc1NC(=O)/C=C/CN1CCCCC1 [Dacomitinib] (max concentration tested 1000 nM)
35.4

---

Test system: ST8814
Experiment: drug sensitivity score (DSS, CellTiter-Glo viability, 72 h) (DSS (dimensionless)); higher = more sensitive; extreme values may be limits of the assay
recorded-endpoint: drug sensitivity score

Cn1cc(C[C@@H](N)C(=O)O)c2ccccc21 [1-methyl-D-tryptophan aq] (max concentration tested 5000 nM)
0
CN[C@@H]1C[C@H]2O[C@@](C)([C@@H]1OC)n1c3ccccc3c3c4c(c5c6ccccc6n2c5c31)C(=O)N[C@H]4O [UCN-01] (max concentration tested 10000 nM)
27.3
CCc1c2c(nc3ccc(OC(=O)N4CCC(N5CCCCC5)CC4)cc13)-c1cc3c(c(=O)n1C2)COC(=O)[C@]3(O)CC [Irinotecan] (max concentration tested 10000 nM)
9.68

---

System: HSC2
Assay: relative IC50 (inflection point of fitted dose-response curve, CellTiter-Glo viability, 72 h; top asymptote may be below 50% inhibition); higher = less potent
This section presents compounds with their documented relative IC50 values.
recorded-endpoint: relative IC50

CS(=O)(=O)OCCCCOS(C)(=O)=O
> 100 µM
O=C(c1ccc(C(=O)N2CCC(N3CCCC3)CC2)c(Nc2ccccc2)c1)N1CCC(N2CCCC2)CC1
> 30 µM
O=C(Cc1ccc(-c2ccc(OCCN3CCOCC3)cc2)cn1)NCc1ccccc1
0.073 µM
CC1=NN(c2ccc(C(=O)O)cc2)C(=O)C1=Cc1ccc(-c2cc(C)c(C)cc2[N+](=O)[O-])o1
> 25 µM
Cc1cc2c(F)c(Oc3ncnn4cc(OC[C@@H](C)O)c(C)c34)ccc2[nH]1
> 1 µM
Clc1ccc(C(c2ccccc2Cl)C(Cl)Cl)cc1 (stereo unspecified)
> 10 µM
CC[C@@]1(O)C(=O)OCc2c1cc1n(c2=O)Cc2cc3c(CN(C)C)c(O)ccc3nc2-1
0.0909 µM
N#Cc1ccc(C(c2ccc(C#N)cc2)n2cncn2)cc1
> 10 µM
CCN1CCN(c2ccc(Nc3cc(N(C)C(=O)Nc4c(Cl)c(OC)cc(OC)c4Cl)ncn3)cc2)CC1
> 1 µM
O=C(CCCCCCC(=O)Nc1ccccc1)NO
1.57 µM
CCNC(=O)CCC/C=C\C[C@@H]1[C@@H](/C=C/[C@@H](O)CCc2ccccc2)[C@H](O)C[C@@H]1O
> 5.5 µM
NC1(c2ccc(-c3nc4ccn5c(=O)[nH]nc5c4cc3-c3ccccc3)cc2)CCC1
> 1 µM
CCCCC/C=C/C=C1/C(=O)C=C[C@@H]1C/C=C\CCCC(=O)O [15D-PGJ2]
> 0.8 µM
CCn1c(C(=O)N(C2CC2)C2CC2)cc2c3c(ncn3C)c(Nc3cc(C)n(C)n3)nc21
> 10 µM
CC[C@@H]1C(=O)N(C)c2cnc(Nc3ccc(C(=O)N[C@H]4CC[C@H](N5CCN(CC6CC6)CC5)CC4)cc3OC)nc2N1C(C)C
0.0332 µM
CCCc1cc(C)[nH]c(=O)c1CNC(=O)c1cc(-c2ccnc(N3CCN(C)CC3)c2)cc2c1cnn2C(C)C
1.81 µM
Nc1ncn([C@@H]2O[C@H](CO)[C@@H](O)[C@H]2O)c(=O)n1
3.32 µM
CCCCC(=O)OCC(=O)[C@]1(O)Cc2c(O)c3c(c(O)c2[C@@H](O[C@H]2C[C@H](NC(=O)C(F)(F)F)[C@H](O)[C@H](C)O2)C1)C(=O)c1c(OC)cccc1C3=O
0.258 µM
CN(C)/N=N/c1[nH]cnc1C(N)=O
> 10 µM
c1ccc([C@H]2CN3CCSC3=N2)cc1
> 10 µM
COC1=C2C[C@@H](C)C[C@H](OC)[C@H](O)[C@@H](C)/C=C(\C)[C@H](OC(N)=O)[C@@H](OC)/C=C\C=C(/C)C(=O)NC(=CC1=O)C2=O
0.338 µM
CNC(=O)c1cc(Oc2ccc(NC(=O)Nc3ccc(Cl)c(C(F)(F)F)c3)cc2)ccn1
> 1 µM
CNC(=O)c1cc(Oc2ccc(NC(=O)Nc3ccc(Cl)c(C(F)(F)F)c3)c(F)c2)ccn1
2.05 µM
CC1(C)NC(=O)N(c2ccc([N+](=O)[O-])c(C(F)(F)F)c2)C1=O [Nilutamide]
> 10 µM
Nc1ncnc2c1nc(Cl)n2[C@@H]1O[C@H](CO)[C@@H](O)[C@H]1O
3.82 µM
CC(C)(C#N)c1cc(Cn2cncn2)cc(C(C)(C)C#N)c1
> 10 µM
